B1: library; numbered along this chain (parent)
chain: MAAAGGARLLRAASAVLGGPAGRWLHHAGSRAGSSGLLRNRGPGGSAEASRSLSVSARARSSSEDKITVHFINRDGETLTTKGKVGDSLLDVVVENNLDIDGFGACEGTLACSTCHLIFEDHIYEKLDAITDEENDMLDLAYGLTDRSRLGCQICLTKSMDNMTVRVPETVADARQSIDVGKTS

Variants of: B1
Assay: scaled log2 fold change in cell abundance, elesclomol vs control (0 = silent mean, 1 = nonsense mean) (scaled log2 ratio); higher = higher viability under elesclomol (loss of FDX1 cuproptosis function);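 also: variant abundance is its share of total variant reads in each endpoint sample, from next-generation sequencing of the integrated ORF PCR-amplified out of genomic DNA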
Conditions: with HEK293T FDX1 KO; elesclomol 40 nM; glucose 10 mM; 11 days
# cutoff 0.06 applies to scaled log2 fold change; >= gives class 1, < gives class 0

mutation.list: T183V
class: class 0
//
mutation.list: E125K
class: class 1
//
mutation.list: C115R
class: class 1
//
mutation.list: D121G
class: class 0
//
mutation.list: R147V
class: class 1
//
mutation.list: T114G
class: class 0
//
mutation.list: S35G
class: class 0
//
mutation.list: G83W
class: class 0
//
mutation.list: L53S
class: class 1
//
mutation.list: F103K
class: class 1
//
mutation.list: T81A
class: class 1
//
mutation.list: K158S
class: class 0
//
mutation.list: A15M
class: class 1
//
mutation.list: A7I
class: class 0
//
mutation.list: D128N
class: class 0
//
mutation.list: V94L
class: class 0
//
mutation.list: A12M
class: class 0
//
mutation.list: D75R
class: class 0
//
mutation.list: S62L
class: class 1
//
mutation.list: F71K
class: class 1
//
mutation.list: S46K
class: class 1
//
mutation.list: L37R
class: class 1
//
mutation.list: T145G
class: class 1
//
mutation.list: S46V
class: class 1
//
mutation.list: G102S
class: class 1
//
mutation.list: L10I
class: class 0
//
mutation.list: G83R
class: class 1
//
mutation.list: G108P
class: class 1
//
mutation.list: S148Q
class: class 1
//
mutation.list: A15E
class: class 0
//
mutation.list: H27N
class: class 1
//
mutation.list: R58H
class: class 0
//
mutation.list: T131L
class: class 1
//
mutation.list: A111G
class: class 1
//
mutation.list: T131Y
class: class 0
//
mutation.list: V94K
class: class 0
//
mutation.list: D99E
class: class 1
//
mutation.list: G36M
class: class 0
//
mutation.list: A28N
class: class 0
//
mutation.list: N135K
class: class 0
//
mutation.list: F103T
class: class 1
//
mutation.list: S184V
class: class 1
//
mutation.list: M163P
class: class 1
//
mutation.list: T78E
class: class 1
//
mutation.list: S30P
class: class 0
//
mutation.list: D121W
class: class 0
//
mutation.list: D173A
class: class 1
//
mutation.list: W24H
class: class 0
//
mutation.list: V69M
class: class 0
//
mutation.list: R51N
class: class 1
//
mutation.list: N135M
class: class 0
//
mutation.list: D146S
class: class 0
//
mutation.list: I72N
class: class 0
//
mutation.list: T183Y
class: class 0
//
mutation.list: C152P
class: class 1
//
mutation.list: S56D
class: class 1
//
mutation.list: L156I
class: class 0
//
mutation.list: E134Q
class: class 0
//
mutation.list: K182T
class: class 0
//
mutation.list: S50I
class: class 0
//
mutation.list: Q153N
class: class 1
//
mutation.list: H116K
class: class 0
//
mutation.list: E64T
class: class 0
//
mutation.list: G5H
class: class 1

Recorded values, source the supplement of paper PMC12855868.
